Overview of recorded recombinant barcode read abundance (log10) for various sequences
Experiment: recombinant barcode read abundance after kanamycin selection (control-corrected) (log10(CPM+1)); higher = more efficient recombination; sequences stand for … in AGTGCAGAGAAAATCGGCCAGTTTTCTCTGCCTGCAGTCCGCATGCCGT…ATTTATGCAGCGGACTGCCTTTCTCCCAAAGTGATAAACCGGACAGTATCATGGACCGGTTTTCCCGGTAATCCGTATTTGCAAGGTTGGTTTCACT; site = the 11-nt target
// no unit, no text: just the number

Examples with answers:
AGGCGGGCATGGGTTCTAACCTGTTGCGGTG [AGGCGGGCTCC_LTGcore_CA_RTGcore_CA] (site AGGCGGGCTCC) (LTG core: CA, RTG core: CA) : 0.776
ATGTCCCCGTGGGTTCTAACCTGTTGCTCAG [ATGTCCCCTGA_LTGcore_CG_RTGcore_CT] (site ATGTCCCCTGA) (LTG core: CG, RTG core: CT) : 0.0411
GGGAGCCGGTGGGTTCTAACCTGTTGCTGAG [GGGAGCCCTCA_LTGcore_GG_RTGcore_CT] (site GGGAGCCCTCA) (LTG core: GG, RTG core: CT) : 0.212
AGTCTTACTTGGGTTCTAACCTGTTGCCATG [AGTCTTACTTG_LTGcore_CT_RTGcore_CA] (site AGTCTTACTTG) (LTG core: CT, RTG core: CA) : 0.0163
GGGAGCCGCTGGGTTCTAACCTGTTGCTGAG [GGGAGCCCTCA_LTGcore_GC_RTGcore_CT] (site GGGAGCCCTCA) (LTG core: GC, RTG core: CT) : 0.379

INPUT: Fill blank: measured recombinant barcode read abundance (log10) of the sequence GGACACCCGTGGGTTCTAACCTGTTGCCTAG [GGACACCCTAG_LTGcore_CG_RTGcore_CT] (site GGACACCCTAG) (LTG core: CG, RTG core: CT) is ____.
OUTPUT: 1.2

INPUT: What value of measured recombinant barcode read abundance (log10) is listed for TGTATTCTTTGGGTTCTAACCTGTTGCCTAG [TGTATTCCTAG_LTGcore_TT_RTGcore_CT] (site TGTATTCCTAG) (LTG core: TT, RTG core: CT) ?
OUTPUT: 0.242

INPUT: Query: recombinant barcode read abundance (log10); subject: AGGCCTCCTTGGGTTCTAACCTGTTGCCTCA [AGGCCTCCTAG_LTGcore_CT_RTGcore_TG] (site AGGCCTCCTAG) (LTG core: CT, RTG core: TG)
OUTPUT: 0.154

INPUT: // query recombinant barcode read abundance (log10) value for entry GAGTCCATGTGGGTTCTAACCTGTTGCGTAG [GAGTCCACTAC_LTGcore_TG_RTGcore_CT] (site GAGTCCACTAC) (LTG core: TG, RTG core: CT)
OUTPUT: 0.0936

INPUT: So what's the measured recombinant barcode read abundance (log10) for this one? AAACATGATTGGGTTCTAACCTGTTGCCTAG [AAACATGCTAG_LTGcore_AT_RTGcore_CT] (site AAACATGCTAG) (LTG core: AT, RTG core: CT)
OUTPUT: 0.372

INPUT: Give the measured recombinant barcode read abundance (log10) of TAGAGGGCTTGGGTTCTAACCTGTTGCGGGG [TAGAGGGCTCC_LTGcore_CT_RTGcore_CC] (site TAGAGGGCTCC) (LTG core: CT, RTG core: CC) .
OUTPUT: 0.241

###

Items are presented alongside their recorded recombinant UMI read abundance (log10).
Test: recombinant UMI read abundance after kanamycin selection (control-corrected) (log10(CPM+1)); higher = more efficient recombination; extreme values may be limits of the assay; sequences stand for … in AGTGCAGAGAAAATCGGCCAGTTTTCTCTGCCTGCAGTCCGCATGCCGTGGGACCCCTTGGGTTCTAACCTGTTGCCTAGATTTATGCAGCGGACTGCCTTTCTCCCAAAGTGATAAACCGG…AGGTTGGTTTCACT; site = the 11-nt donor

Reference set, count: 3
CGCAATCCATGGACCGGTTTTCCCGGTAATCCGTATTTGTG (site CGCAATCCTCA) : 0.631
CTGGAAACATGGACCGGTTTTCCCGGTAATCCGTATTTGAA (site CTGGAAACTTA) : 0.0938
GGAGTGACATGGACCGGTTTTCCCGGTAATCCGTATTTGGT (site GGAGTGCCTAC) : 0.00536

API: the following record is the query input.
INPUT: Please report the recorded recombinant UMI read abundance (log10) for TTAGAGACATGGACCGGTTTTCCCGGTAATCCGTATTTGCG (site TGAGAGACTCG) .
OUTPUT: 0.02

###

Experiment: recombinant barcode read abundance after kanamycin selection (control-corrected) (log10(CPM+1)); higher = more efficient recombination; sequences stand for … in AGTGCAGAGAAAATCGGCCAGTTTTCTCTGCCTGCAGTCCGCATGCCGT…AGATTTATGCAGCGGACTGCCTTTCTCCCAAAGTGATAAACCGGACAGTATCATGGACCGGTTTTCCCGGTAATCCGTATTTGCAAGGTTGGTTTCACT; site = the 11-nt target
Category scheme (recombinant barcode read abundance (log10)): lower range = under 0.09, middle range = from 0.09 up to 0.5, upper range = 0.5 and over

Some entries whose results are on file:
TGCGTCCCTTGGGTTCTAACCTGTTGCCT (site TGTGTCCCTAG) : lower range
CGACAATCTTGGGTTCTAACCTGTTGCTT (site CGACAATCTAA) : lower range
CTAATTACTTGGGTTCTAACCTGTTGCAA (site CTAATTACTTT) : middle range
CTGCATACTTGGGTTCTAACCTGTTGCCT (site CAGCATACTAG) : middle range
GTCTTCCCTTGGGTTCTAACCTGTTGCGT (site GTCTTCCCTAC) : upper range
ACACGGCCTTGGGTTCTAACCTGTTGCCG (site ACACGGCCTCG) : middle range
GCGGCTCCTTGGGTTCTAACCTGTTGCAT (site GCGCCTCCTAT) : lower range
GGGTCGGCTTGGGTTCTAACCTGTTGCGA (site GGGTCGGCTTC) : upper range

Now for another entry.
INPUT: In plain terms, what class is TAGCGGCCTTGGGTTCTAACCTGTTGCGG (site CCAGTATCTAT) ?
OUTPUT: middle range

###

Below, each entry is listed alongside its reported recombinant barcode read abundance (log10).
Assay: recombinant barcode read abundance after kanamycin selection (control-corrected) (log10(CPM+1)); higher = more efficient recombination; sequences stand for … in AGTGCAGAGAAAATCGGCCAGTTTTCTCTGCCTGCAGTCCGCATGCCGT…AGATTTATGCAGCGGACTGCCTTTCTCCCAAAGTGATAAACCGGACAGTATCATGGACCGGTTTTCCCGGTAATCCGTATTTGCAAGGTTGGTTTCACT; site = the 11-nt target

Illustrative cases are given below, each with its answer.
TTGGTGCCTTGGGTTCTAACCTGTTGCCT (site TTGGTACCTAG) : 1.97
ACATTGTCTTGGGTTCTAACCTGTTGCGG (site ACACTGTCTCC) : 0.236
CTGTCTCCTTGGGTTCTAACCTGTTGCCT (site GTGTCTCCTAG) : 0.0715

From here, focus on the item given below.
INPUT: Quick one: recombinant barcode read abundance (log10) of AGAGAATCTTGGGTTCTAACCTGTTGCCT (site AGAGAATCTAG) ?
OUTPUT: 1.28

###

Experiment: recombinant barcode read abundance after kanamycin selection (control-corrected) (log10(CPM+1)); higher = more efficient recombination; sequences stand for … in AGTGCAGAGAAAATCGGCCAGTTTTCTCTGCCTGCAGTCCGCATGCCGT…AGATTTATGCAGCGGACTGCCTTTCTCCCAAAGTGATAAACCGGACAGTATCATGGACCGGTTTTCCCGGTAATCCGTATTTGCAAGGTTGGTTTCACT; site = the 11-nt target
Measured recombinant barcode read abundance (log10) of individual entries
Please respond with just the number, no unit label.

Example entries begin here.
GGTGGGTCTTGGGTTCTAACCTGTTGCCT (site GGTGGGTCTAT) : 0.382
CAATCCTCTTGGGTTCTAACCTGTTGCCT (site TAATCCTCTAG) : 0.127
ATAGCCACTTGGGTTCTAACCTGTTGCCT (site ATAGCGACTAG) : 0.0246

INPUT: Could you tell me which recombinant barcode read abundance (log10) is on file for CTATGGACTTGGGTTCTAACCTGTTGCAA (site CTATGGACTGT) ?
OUTPUT: 0.274

INPUT: Sample GGAGCTTCTTGGGTTCTAACCTGTTGCCT (site GTACCTTCTAG) — what was its recombinant barcode read abundance (log10)?
OUTPUT: 0.256

###

Below, each entry is listed with its recorded recombinant UMI read abundance (log10).
Experiment: recombinant UMI read abundance after kanamycin selection (control-corrected) (log10(CPM+1)); higher = more efficient recombination; extreme values may be limits of the assay; sequences stand for … in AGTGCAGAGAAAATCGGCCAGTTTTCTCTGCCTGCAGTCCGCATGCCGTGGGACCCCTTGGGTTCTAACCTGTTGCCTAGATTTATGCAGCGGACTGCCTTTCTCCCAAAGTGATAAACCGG…AGGTTGGTTTCACT; site = the 11-nt donor
In your answer, state the number alone without any accompanying words.

Examples with answers:
AGGCTAGCATGGACCGGTTTTCCCGGTAATCCGTATTTGTT (site AGCCTAGCTAA) : 0.017
ATCGAGACATGGACCGGTTTTCCCGGTAATCCGTATTTGGT (site ATGGAGACTAC) : 0.604

INPUT: Please look up its recombinant UMI read abundance (log10): CCCTGCTCATGGACCGGTTTTCCCGGTAATCCGTATTTGGG (site CCCTTCTCTCC)
OUTPUT: 0.018

INPUT: Recorded recombinant UMI read abundance (log10) for AGTTGTTCATGGACCGGTTTTCCCGGTAATCCGTATTTGGC (site AGTTGTTCTGC) , please?
OUTPUT: 1.34

INPUT: Which recombinant UMI read abundance (log10) value is on record for CGATGGACATGGACCGGTTTTCCCGGTAATCCGTATTTGTT (site CGATGGACTAA) ?
OUTPUT: 1.97
